FYI, the data here is from the supplement of paper PMC10567573.

B1: KLHL20 (parent)
chain: YQDMIYAVGGRDDTTELSSAERYN

variants of: B1; test: protein stability index of a GFP-peptide fusion (GPS, HEK-293T) (PSI 1-6); higher = more stable; conditions: c terminus: a fixed tail appended;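 note: lentivirally expressed fusions sorted by FACS into six bins by GFP to DsRed ratio, PSI derived from sequencing read proportions per bin multiplied by bin number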
value.type: protein stability index

>>> print(df.to_string())
    change               value_type  measured_number
 0    D13N  protein stability index             2.01
 1    E21V  protein stability index             2.09
 2     G9A  protein stability index             1.94
 3     M4A  protein stability index             2.51
 4    E16W  protein stability index             2.23
 5     G9P  protein stability index             2.32
 6    S19L  protein stability index             2.02
 7    D12L  protein stability index             2.21
 8     Q2K  protein stability index              4.2
 9    A20K  protein stability index             2.03
10    T14C  protein stability index             2.47
